Entries and their melting point
readout: melting point

O=C(c1ncc(F)cc1F)N1CCn2nc(COc3cccc(F)c3)cc2C1 | > 300 °C
CC1Cn2nc(COc3ccccc3)cc2CN1C(=O)c1ccc(F)cc1 (centres unmarked) [Compound 46] | > 300 °C
N#Cc1cc(F)cc(C(=O)N2CCn3nc(COc4cccc(F)c4)cc3C2)c1 | 76.8 °C
N#Cc1ccc(C(=O)N2CCn3nc(COc4cccc(F)c4)cc3C2)cc1F | > 300 °C
Cc1cnc(C(=O)N2CCn3nc(COc4cccc(F)c4)cc3C2)cn1 | 105.5 °C
O=C(c1ccc(F)cc1)N1CCn2nc(COc3ccccc3)cc2C1C(F)(F)F (racemic) | 53.1 °C
CC1Cn2nc(COc3ccccc3)cc2CN1C(=O)c1cccc(C#N)c1 (centres unmarked) [Compound 49] | > 300 °C
O=C(c1ccnnc1)N1CCn2nc(COc3cccc(F)c3)cc2C1 | 282.6 °C
O=C(c1ncccc1F)N1CCn2nc(COc3cccc(F)c3)cc2C1 | 114 °C
Cc1ccc(C(=O)N2CCn3nc(COc4cccc(F)c4)cc3C2)cn1 | 88.2 °C
CC1CN(C(=O)c2cccc(C#N)c2)Cc2cc(COc3ccccc3)nn21 (centres unmarked) | 88.8 °C

###

Entries and their Emax
# studyTarget: human mGluR5a receptor (Homo sapiens, UniProt P41594)
# Sequence (P41594 21-1180 isoform P41594-2 limits assumed): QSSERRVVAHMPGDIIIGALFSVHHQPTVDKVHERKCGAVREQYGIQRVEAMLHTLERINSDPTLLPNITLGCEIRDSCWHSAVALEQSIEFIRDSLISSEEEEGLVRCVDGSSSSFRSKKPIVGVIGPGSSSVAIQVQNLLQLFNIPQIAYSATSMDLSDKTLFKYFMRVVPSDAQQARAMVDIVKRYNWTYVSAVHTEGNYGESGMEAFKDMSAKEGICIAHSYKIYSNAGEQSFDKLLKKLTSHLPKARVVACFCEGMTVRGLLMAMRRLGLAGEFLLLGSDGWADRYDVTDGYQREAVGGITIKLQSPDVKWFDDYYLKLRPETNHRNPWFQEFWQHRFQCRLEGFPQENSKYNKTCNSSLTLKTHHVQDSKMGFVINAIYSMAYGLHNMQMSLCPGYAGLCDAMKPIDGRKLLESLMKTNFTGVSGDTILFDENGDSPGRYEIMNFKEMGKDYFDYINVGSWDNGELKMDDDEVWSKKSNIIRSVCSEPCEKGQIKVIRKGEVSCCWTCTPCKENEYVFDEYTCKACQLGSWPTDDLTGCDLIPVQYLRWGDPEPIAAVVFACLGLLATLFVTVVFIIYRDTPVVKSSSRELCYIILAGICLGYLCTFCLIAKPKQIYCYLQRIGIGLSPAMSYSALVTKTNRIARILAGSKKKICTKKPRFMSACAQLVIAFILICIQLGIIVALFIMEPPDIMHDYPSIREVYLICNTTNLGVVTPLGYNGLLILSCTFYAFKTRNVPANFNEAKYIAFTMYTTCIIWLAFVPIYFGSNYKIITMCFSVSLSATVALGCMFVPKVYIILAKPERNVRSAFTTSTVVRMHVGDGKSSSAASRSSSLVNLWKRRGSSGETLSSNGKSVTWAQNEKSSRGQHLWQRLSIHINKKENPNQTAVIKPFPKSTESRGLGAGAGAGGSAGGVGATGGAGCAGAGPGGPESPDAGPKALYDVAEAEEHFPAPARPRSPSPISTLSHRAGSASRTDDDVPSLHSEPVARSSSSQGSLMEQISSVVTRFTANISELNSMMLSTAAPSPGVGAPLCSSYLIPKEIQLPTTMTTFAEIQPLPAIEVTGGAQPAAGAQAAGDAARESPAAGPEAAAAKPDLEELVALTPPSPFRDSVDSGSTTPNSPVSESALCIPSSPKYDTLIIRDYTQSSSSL
# assayNotes: Cell-based functional Ca2+ mobilization assay (FDSS), potentiation of glutamate EC20 response in H10H cell line
# assayContext: HEK293, maximum average response at a single concentration, percent of maximal glutamate response; human mGluR5 HEK cells; read-out: Emax
readout: Emax (%)

CC1Cn2nc(COc3ccccc3)cc2CN1C(=O)c1cccc(F)c1 (stereo not drawn) | 52
N#Cc1cc(F)cc(C(=O)N2CCn3nc(COc4ccccc4)cc3C2)c1 | 52
Nc1c(COc2ccccc2)nn2c1CN(C(=O)c1ccc(F)cc1)CC2 | 51
O=C(c1ccc(F)cc1)N1CCn2nc(COc3ccccc3)c(F)c2C1 | 62
O=C(c1ncccc1F)N1CCn2nc(COc3cccc(F)c3)cc2C1 | 65
O=C(c1cccc(F)c1)N1CCn2nc(COc3cccc(F)c3)cc2C1 | 69
O=C(c1ccc(F)cc1)N1CCn2nc(COc3cccc(F)c3)cc2C1 | 69
O=C(c1cc(F)cc(F)c1)N1CCn2nc(COc3ccccc3)cc2C1 | 50
CC1CN(C(=O)c2cccc(F)c2)Cc2cc(COc3ccccc3)nn21 (stereo not drawn) | 69
O=C(c1cnccn1)N1CCn2nc(COc3cccc(F)c3)cc2C1 | 60
O=C(c1ccc(F)c(F)c1)N1CCn2nc(COc3ccccc3)cc2C1 | 70
O=C(c1ccc(F)cc1)N1CCn2nc(COc3ccccc3)cc2C1C(F)(F)F (racemic) | 67
O=C(c1ccc(F)cc1F)N1CCn2nc(COc3ccccc3)cc2C1 | 78
N#Cc1cc(C(=O)N2CCn3nc(COc4cccc(F)c4)cc3C2)ccc1F | 71
O=C(c1ccc(F)cc1)N1CCn2nc(COc3ccccc3)cc2C1 | 67

###

# studyTarget: human mGluR5a receptor (Homo sapiens, UniProt P41594)
# assayNotes: Cell-based functional Ca2+ mobilization assay (FDSS), potentiation of glutamate EC20 response in H10H cell line
# assayContext: HEK cells transfected with human mGluR5 (H10H), presence of glutamate EC20; concentration in mol/L
readout: pEC50

N#Cc1cc(C(=O)N2CCn3nc(COc4cccc(F)c4)cc3C2)ccc1F | 5.98
CC1CN(C(=O)c2ccc(F)cc2)Cc2cc(COc3ccccc3)nn21 (stereo not shown) [Compound 40] | 6.15
O=C(c1cccc(F)c1)N1CCn2nc(COc3ccc(F)cc3)cc2C1 | 6.68
O=C(c1ccc(F)c(F)c1)N1CCn2nc(COc3cccc(F)c3)cc2C1 | 6.23
O=C(c1cc(F)cc(F)c1)N1CCn2nc(COc3ccccc3)cc2C1 | 7.10
CC1Cn2nc(COc3ccccc3)cc2CN1C(=O)c1cccc(F)c1 (stereo not shown) [Compound 48] | 6.31
N#Cc1ccc(C(=O)N2CCn3nc(COc4cccc(F)c4)cc3C2)cc1F | 5.75
CC1Cn2nc(COc3ccccc3)cc2CN1C(=O)c1cc(F)cc(C#N)c1 (stereo not shown) [Compound 51] | 6.12

###

# studyTarget: UniProtKB P41594
# assayNotes: Cell-based functional Ca2+ mobilization assay (FDSS), potentiation of glutamate EC20 response in H10H cell line
# assayContext: HEK cells transfected with human mGluR5 (H10H), presence of glutamate EC20; concentration in mol/L
readout: pEC50

O=C(c1ccccc1F)N1CCn2nc(COc3ccccc3)cc2C1 [Compound 2] | 6.70
N#Cc1cccc(C(=O)N2CCn3nc(COc4ccccc4)cc3C2)c1 [Compound 25] | 6.34
CC1CN(C(=O)c2ccc(F)cc2)Cc2cc(COc3ccccc3)nn21 (centres unmarked) [Compound 41] | 6.79
O=C(c1ccc(F)cc1)N1CCn2nc(COc3ccccc3)c(Cl)c2C1 [Compound 55] | 5.53
O=C(c1cccc(F)c1)N1CCn2nc(COc3cccc(F)c3)cc2C1 [Compound 10] | 6.57
N#Cc1cc(F)cc(C(=O)N2CCn3nc(COc4ccccc4)cc3C2)c1 [Compound 26] | 7.08
CC1CN(C(=O)c2cc(F)cc(C#N)c2)Cc2cc(COc3ccccc3)nn21 (centres unmarked) [Compound 44] | 6.16
N#Cc1cc(C(=O)N2CCn3nc(COc4ccccc4)cc3C2)ccc1F [Compound 28] | 5.78
O=C(c1ccc(F)c(F)c1)N1CCn2nc(COc3ccccc3)cc2C1 [Compound 4] | 6.38
O=C(c1ncc(F)cc1F)N1CCn2nc(COc3cccc(F)c3)cc2C1 [Compound 21] | 5.89

###

# studyTarget: human mGluR5a receptor (Homo sapiens, UniProt P41594)
# assayNotes: Cell-based functional Ca2+ mobilization assay (FDSS), potentiation of glutamate EC20 response in H10H cell line
# assayContext: HEK cells transfected with human mGluR5 (H10H), presence of glutamate EC20; read-out: EC50
pEC50: −log10 of the molar value.
# label = rule met if pEC50 >= 6 else rule not met

Cc1cnc(C(=O)N2CCn3nc(COc4cccc(F)c4)cc3C2)cn1 [Compound 35] | rule not met
Cc1ncc(C(=O)N2CCn3nc(COc4cccc(F)c4)cc3C2)cn1 [Compound 37] | rule not met
O=C(c1cc(F)cc(F)c1)N1CCn2nc(COc3ccccc3)cc2C1 [Compound 5] | rule met
O=C(c1ccc(F)cc1)N1CCn2nc(COc3ccc(F)cc3)cc2C1 [Compound 38] | rule met
CC1CN(C(=O)c2cccc(C#N)c2)Cc2cc(COc3ccccc3)nn21 (centres unmarked) [Compound 43] | rule met
O=C(c1ccc(F)cc1)N1CCn2nc(COc3ccccc3)c(F)c2C1 [Compound 56] | rule met
CC1Cn2nc(COc3ccccc3)cc2CN1C(=O)c1ccc(F)cc1 (centres unmarked) [Compound 46] | rule not met
N#Cc1cc(C(=O)N2CCn3nc(COc4ccccc4)cc3C2)ccc1F [Compound 28] | rule not met

###

Entries and their melting point
readout: melting point (°C)

N#Cc1cc(C(=O)N2CCn3nc(COc4ccccc4)cc3C2)ccc1F [Compound 28] | 133.3
Cc1cccnc1C(=O)N1CCn2nc(COc3cccc(F)c3)cc2C1 [Compound 14] | 125.4
N#Cc1cc(F)cc(C(=O)N2CCn3nc(COc4ccccc4)cc3C2)c1 [Compound 26] | 109.8

###

Entries and their Emax
# studyTarget: human mGluR5a receptor (Homo sapiens)
# assayNotes: Cell-based functional Ca2+ mobilization assay (FDSS), potentiation of glutamate EC20 response in H10H cell line
# assayContext: HEK293, maximum average response at a single concentration, percent of maximal glutamate response; human mGluR5 HEK cells; read-out: Emax
readout: Emax

O=C(c1c(F)cccc1F)N1CCn2nc(COc3ccccc3)cc2C1 | 74%
CC1Cn2nc(COc3ccccc3)cc2CN1C(=O)c1ccc(F)cc1 (racemic) | 81%
N#Cc1cccc(C(=O)N2CCn3nc(COc4cccc(F)c4)cc3C2)c1 | 59%
CC1Cn2nc(COc3ccccc3)cc2CN1C(=O)c1cccc(C#N)c1 (centres unmarked) | 52%
CC1CN(C(=O)c2ccc(F)cc2)Cc2cc(COc3ccccc3)nn21 (centres unmarked) [Compound 40] | 58%
N#Cc1cc(F)cc(C(=O)N2CCn3nc(COc4cccc(F)c4)cc3C2)c1 | 54%
CC1CN(C(=O)c2cccc(C#N)c2)Cc2cc(COc3ccccc3)nn21 (centres unmarked) | 72%
N#Cc1cc(C(=O)N2CCn3nc(COc4ccccc4)cc3C2)ccc1F | 81%

###

# studyTarget: human mGluR5a receptor (Homo sapiens, UniProt P41594)
# assayNotes: Cell-based functional Ca2+ mobilization assay (FDSS), potentiation of glutamate EC20 response in H10H cell line
# assayContext: HEK cells transfected with human mGluR5 (H10H), presence of glutamate EC20; concentration in mol/L
Entries and their pEC50
readout: pEC50

O=C(c1ccnnc1)N1CCn2nc(COc3cccc(F)c3)cc2C1 [Compound 36] | <5.00
N#Cc1ccc(C(=O)N2CCn3nc(COc4ccccc4)cc3C2)cc1F [Compound 27] | <4.52
CC1Cn2nc(COc3ccccc3)cc2CN1C(=O)c1cc(F)cc(C#N)c1 (stereo not shown) [Compound 52] | <5.00
Cc1cnc(C(=O)N2CCn3nc(COc4cccc(F)c4)cc3C2)cn1 [Compound 35] | <4.52
